Target: Human recombinant MMP-13 (Homo sapiens, UniProt P45452)
Construct: made in house; host or cells: baculovirus / insect cells
Assay: In vitro MMP inhibition analysis (fluorogenic peptide substrate cleavage), Ki
Format: biochemical
Settings: Table 2
Test readout: Ki (pM)

{"columns": ["Structure smiles string", "Unit abbreviation", "Ki"],
 "data": [
  ["CC(C)N(C(=O)N1CCC(C(=O)NO)(S(=O)(=O)c2ccc(-c3ccc(CCC(F)(F)C(F)(F)F)cc3)cc2)CC1)C(C)C", "pM", 1920],
  ["COCCO[C@H]1CC[C@](C(=O)NO)(S(=O)(=O)c2ccc(-c3cnc(CCC(F)(F)C(F)(F)F)cn3)cc2)CC1", "pM", 100],
  ["CC(C)CCOc1ccc(-c2ccc(S(=O)(=O)C3(C(=O)NO)CCOCC3)cc2)cc1C(F)(F)F", "pM", 36200],
  ["O=C(NO)C1(S(=O)(=O)c2ccc(-c3ccc(CCCC(F)(F)F)cn3)cc2)CC=CC1", "pM", 76],
  ["O=C(N1CCOCC1)N1CCC(C(=O)NO)(S(=O)(=O)c2ccc(-c3ccc(CCC(F)(F)C(F)(F)F)cc3)cc2)CC1", "pM", 230]
]}

I. CCCCCc1ccc(-c2ccc(S(=O)(=O)C3(C(=O)NO)CCOCC3)cc2)c(F)c1
II. CCN1CCC(C(=O)NO)(S(=O)(=O)c2ccc(-c3noc(-c4ccncc4)n3)cc2)CC1
Lab notebook, comparison: I versus II , higher Ki goes to which? Your answer should be the label of the entry you select.
II

* * *

Molecular target: Human recombinant MMP-2 (Homo sapiens)
Construct: made in house; host or cells: MMP-2-transfected p2AHT2 cells
Sequence (P08253 110-660): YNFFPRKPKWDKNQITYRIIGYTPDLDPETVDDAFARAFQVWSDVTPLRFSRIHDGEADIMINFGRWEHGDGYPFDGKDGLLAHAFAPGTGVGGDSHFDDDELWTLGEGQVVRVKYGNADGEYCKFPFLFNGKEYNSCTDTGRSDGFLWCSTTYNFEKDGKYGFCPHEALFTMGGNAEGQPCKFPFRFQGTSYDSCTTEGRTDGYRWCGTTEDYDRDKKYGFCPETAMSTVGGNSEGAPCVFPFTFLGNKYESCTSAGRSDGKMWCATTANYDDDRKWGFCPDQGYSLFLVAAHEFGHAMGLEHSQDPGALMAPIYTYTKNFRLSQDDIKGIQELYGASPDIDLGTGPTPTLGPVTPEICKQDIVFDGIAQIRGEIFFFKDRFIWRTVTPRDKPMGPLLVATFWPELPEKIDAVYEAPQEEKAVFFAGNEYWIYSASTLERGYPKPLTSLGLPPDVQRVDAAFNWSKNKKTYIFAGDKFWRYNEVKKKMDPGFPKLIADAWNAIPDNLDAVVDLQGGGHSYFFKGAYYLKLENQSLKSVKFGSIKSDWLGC
Test: In vitro MMP inhibition analysis (fluorogenic peptide substrate cleavage), Ki
Assay type: biochemical
Conditions: Table 2
Test readout: Ki (nM)

Previously resolved entries follow.
{"columns": ["Structure smiles string", "Unit abbreviation", "Readout value"],
 "data": [
  ["CCOc1ccc(-c2ccc(S(=O)(=O)C3(C(=O)NO)CCOCC3)cc2)cc1", "nM", 0.02],
  ["CCCCOc1ccc(-c2ccc(S(=O)(=O)C3(C(=O)NO)CCN(C4CC4)CC3)cc2)cc1", "nM", 0.191],
  ["COCCOc1ccc(-c2ccc(S(=O)(=O)C3(C(=O)NO)CCN(C4CC4)CC3)cc2)cc1", "nM", 0.17],
  ["O=C(NO)C1(S(=O)(=O)c2ccc(-c3ccc(CCC(F)(F)C(F)(F)F)cn3)cc2)CCOCC1", "nM", 0.045]
]}

P. CCCCOc1ccc(-c2ccc(S(=O)(=O)C3(C(=O)NO)CCOCC3)cc2)cc1
Q. CCCCc1ccc(-c2ccc(S(=O)(=O)C3(C(=O)NO)CCOCC3)cc2)cc1
// compare measured Ki between P and Q ; output the lower one Use the label to indicate which entry you chose.
P
(P: 0.18 nM, Q: 0.374 nM)

* * *

Target: Human recombinant MMP-14 (Homo sapiens)
Construct: The catalytic domain enzyme was expressed in E. coli inclusion bodies, solubilized in urea; made in house
Assay: In vitro MMP inhibition analysis (fluorogenic peptide substrate cleavage), Ki
Type: biochemical
Details: Table 1
pKi: −log10 of the molar value.
Test readout: pKi

A. CC(C)(C)N1CCC(C(=O)NO)(S(=O)(=O)c2ccc(-c3ccc(CCCC(F)(F)F)cc3)cc2)CC1 [Example 48]
B. CCOCCOc1ccc(-c2ccc(S(=O)(=O)C3(C(=O)NO)CCOCC3)cc2)cc1 [Example 37]
C. O=C(NO)C1(S(=O)(=O)c2ccc(-c3ccc(OC(F)(F)C(F)F)cc3)cc2)CCN(C2CC2)CC1 [Example 40]
Sort ascending by pKi: all records listed above. Lab note: final answer is the ordered label list.
A, B, C
(A: 5.07, B: 6.20, C: 6.53)
